Values were extracted from ChEMBL document CHEMBL1201862.

As shown below, each of these compounds has a reported GI50 value.
tested on: OVCAR-5; assay: NCI tumour cell line growth inhibition, 48 h
Activity calls are given as the source filed them. No stated cut-off is given here; in the data, active = GI50 up to about 1.1 µM and inactive = higher.

Please review the following examples before continuing.
Compound	Reported metric	Reported result
NC1=NN(c2ccccc2)C(=O)C1C(=O)C(=O)NC1C2CC3CC(C2)CC1C3 (stereo unspecified)	GI50	> 100 µM (inactive)
COC1OC(CO)C(O)C(OC(C)=O)C1NC(=O)N(CCCl)N=O (stereo unspecified)	GI50	> 100 µM (inactive)
COc1cc2c(cc1O)[C@H](C)C(c1ccc(OC)c(OC)c1)O2 (stereo partly specified)	GI50	45.6 µM (inactive)
CC(=O)OCCOCNC(=S)N/N=C(\C)c1cccs1	GI50	> 100 µM (inactive)
CC[N+](C)(C)c1ccc(C(=C2C=CC(=[N+](C)C)C=C2)c2ccc(N(C)C)cc2)cc1	GI50	52 µM (inactive)

From here, focus on the item given below.
Task: Consider the compound `COc1c(-c2ccc3c(c2)OCO3)oc2cc3c(c(OC)c2c1=O)OCO3` and give its measured GI50.
Output: 29.8 µM (inactive)
